Reference source: PubChem BioAssay AID1671319

- TARGET DESC: Tyrosine-protein kinase Lyn (Homo sapiens) (UniProt P07948)
- Sequence (P07948 whole entry, looked up, canonical isoform): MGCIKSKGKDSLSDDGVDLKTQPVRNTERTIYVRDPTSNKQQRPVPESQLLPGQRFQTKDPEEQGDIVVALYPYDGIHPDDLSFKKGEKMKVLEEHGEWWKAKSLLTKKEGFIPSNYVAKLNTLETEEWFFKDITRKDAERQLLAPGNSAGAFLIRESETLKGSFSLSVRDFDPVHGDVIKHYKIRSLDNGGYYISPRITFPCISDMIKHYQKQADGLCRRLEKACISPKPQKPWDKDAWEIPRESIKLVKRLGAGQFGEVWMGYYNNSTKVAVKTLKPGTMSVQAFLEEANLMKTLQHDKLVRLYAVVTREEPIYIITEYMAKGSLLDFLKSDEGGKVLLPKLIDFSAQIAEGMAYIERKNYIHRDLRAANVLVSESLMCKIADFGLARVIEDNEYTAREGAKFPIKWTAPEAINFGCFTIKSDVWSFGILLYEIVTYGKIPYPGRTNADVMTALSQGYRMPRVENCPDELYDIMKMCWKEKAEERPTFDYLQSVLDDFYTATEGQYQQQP
- ASSAY COMMENT: LYN B kinase inhibition, dose response, biochemical, LYN B isoform, Z'-LYTE, FRET readout (AID 1671319)
- CONDITION SUMMARY: Z'-LYTE FRET kinase assay, recombinant LYN B
MEASURED ENDPOINT: IC50

Q: GET /values?readout=IC50&item= COc1cc2ncnc(Nc3cccc(Cl)c3)c2cc1OC
Result: 244 nM
